Numbers sourced from patent US11679108B2.

Assign pIC50 to each entry below.
assay-target: ATX in human plasma (Homo sapiens, UniProt Q13822)
Construct: blank plasma was derived from at least 6 individual people
measurement-notes: Analysis in vitro: detection of LPA in human plasma for screening activity (LPA 18:2 by LC/MS/MS)
experimental-parameters: incubated 2 hours at 37° C., LPA 18:2 detected by LC/MS/MS
pIC50: −log10 of the molar value.

## Input Lab request: please report pIC50 under test system ATX in human plasma (Homo sapiens, UniProt Q13822) for CCc1nc2sc(N3CCC(NC(=O)N4CC(O)C4)C3)nn2c1N(C)c1nc(-c2ccc(F)cc2)c(C#N)s1 (stereo not shown)
## Output 7.00 to 11.00

## Input Let us now turn to CCc1nc2sc(N3CCC4(CN(CC(=O)N5CC(O)C5)C4)C3)nn2c1N(C)c1nc(-c2ccc(F)cc2)c(C#N)s1
## Output 6.30 to 7.00

## Input Further, for CCOC(=O)CN(C)C1CCN(c2nn3c(N(C)c4nc(-c5ccc(F)cc5)c(C#N)s4)c(CC)nc3s2)C1 (stereo not shown) ?
## Output 6.30 to 7.00

## Input Follow-up entry: CCc1nc2sc(N3CCN(CC(=O)N4CC(O)C4)C4(CC4)C3)nn2c1N(C)c1nc(-c2ccc(F)cc2)c(C#N)s1
## Output 6.30 to 7.00

## Input # iterate: CCc1nc2sc(N3CC4(CCN(CC(=O)N5CC(O)C5)C4)C3)nn2c1N(C)c1nc(-c2ccc(F)cc2)c(C#N)s1
## Output 6.30 to 7.00

## Input What do you have for CCc1nc2sc(N3C[C@H](C)N(CC(=O)N4CC(O)C4)C[C@H]3C)nn2c1N(C)c1nc(-c2ccc(F)cc2)c(C#N)s1 (relative stereo) ?
## Output 7.00 to 11.00

## Input Same read-out for CCc1nc2sc(N3CC[C@@H](NCC(=O)N4CC(O)C4)C3)nn2c1N(C)c1nc(-c2ccc(F)cc2)c(C#N)s1 ?
## Output 7.00 to 11.00
